system: foxtail, green (green foxtail, Setaria viridis); test: Test D controlled growth environment herbicide test, pre- and postemergence; format: in vivo; settings: Preemergence, 62 g ai/ha; scale 0 to 100 (0 no effect, 100 complete control)
# Plant response rating, Foxtail, Green per entry
READOUT NAME: Plant response rating, Foxtail, Green

>>> df
                                   compound  reported_value
0  CCC(=O)Oc1c(C)nn(C)c(=O)c1-c1c(C)sc2ccc(C)cc12              65
1    Cc1ccc(-c2c(O)c(Br)nn(C)c2=O)c2ccccc12               0
2  COc1nn(C)c(=O)c(-c2c(C)ccc3ccccc23)c1OC(=O)OC(C)C              25
3       Cc1ccc2ccccc2c1-c1c(O)c(C)nn(C)c1=O              75
4  CC(=O)Oc1c(C)nn(C)c(=O)c1-c1c(C)sc2c(C)cc(C)cc12              95

---

test system: barnyardgrass (Echinochloa crus-galli); test: Test A greenhouse herbicide test, pre- and postemergence; type: in vivo; conditions: Postemergence, 500 g ai/ha; visual rating after approx. 10 d, 0 to 100 scale (0 no effect, 100 complete control)
READOUT NAME: Plant response rating, Barnyardgrass

>>> df
                                   compound                             system_name  reported_value
0  CC(=O)Oc1c(C)nn(C)c(=O)c1-c1ccc(Cl)c2ccccc12  barnyardgrass (Echinochloa crus-galli)              80
1  COC(=O)Oc1c(C)nn(C)c(=O)c1-c1c([N+](=O)[O-])ccc2ccccc12  barnyardgrass (Echinochloa crus-galli)              50
2  Cc1cc(C)c2sc(C)c(-c3c(OCC#N)c(C)nn(C)c3=O)c2c1  barnyardgrass (Echinochloa crus-galli)              20
3  Cc1nn(C)c(=O)c(-c2ccc(F)c3ccccc23)c1OC(=O)CC(F)(F)F  barnyardgrass (Echinochloa crus-galli)              70
4  Cc1nn(C)c(=O)c(-c2c(C)sc3ccccc23)c1OC(=O)N1CCOCC1  barnyardgrass (Echinochloa crus-galli)              10
5  Cc1ccc2ccccc2c1-c1c(O)c([N+](=O)[O-])nn(C)c1=O  barnyardgrass (Echinochloa crus-galli)               0
6  CC(=O)Oc1c(C)nn(C)c(=O)c1-c1c(C)cc(C)c2ccccc12  barnyardgrass (Echinochloa crus-galli)              90
7  Cc1cc(C)c2ccccc2c1-c1c(OS(C)(=O)=O)c(C)nn(C)c1=O  barnyardgrass (Echinochloa crus-galli)              90
8      Cc1ccc2ccccc2c1-c1c(O)c(Cl)nn(C)c1=O  barnyardgrass (Echinochloa crus-galli)              90
9  Cc1ccc2ccccc2c1-c1c(OS(C)(=O)=O)c(Br)nn(C)c1=O  barnyardgrass (Echinochloa crus-galli)              80

---

system: ragweed (common ragweed, Ambrosia elatior); test: Test A greenhouse herbicide test, pre- and postemergence; assay type: in vivo; conditions: Postemergence, 500 g ai/ha; 0 to 100 scale, 0 is no effect, 100 is complete control
READOUT NAME: Ragweed plant response rating

                                   compound                               system_name                   readout_name  reported_value
0  CCc1ccc2ccccc2c1-c1c(OC(=O)OC(C)C)c(C)nn(C)c1=O [Compound 39]  ragweed (common ragweed, Ambrosia elatior)  Ragweed plant response rating              90
1  COc1nn(C)c(=O)c(-c2c(C)ccc3ccccc23)c1O [Compound 54]  ragweed (common ragweed, Ambrosia elatior)  Ragweed plant response rating             100
2  Cc1sc2ccccc2c1-c1c(OC(=O)OC(C)C)c(Cl)nn(C)c1=O [Compound 94]  ragweed (common ragweed, Ambrosia elatior)  Ragweed plant response rating              60
3  CCOC(=O)Oc1c(C)nn(C)c(=O)c1-c1c(C)sc2c(C)cc(C)cc12 [Compound 83]  ragweed (common ragweed, Ambrosia elatior)  Ragweed plant response rating             100
4  Cc1ccc(-c2c(O)c(Br)nn(C)c2=O)c2ccccc12 [Compound 52]  ragweed (common ragweed, Ambrosia elatior)  Ragweed plant response rating             100

---

# Plant response rating (scale of 0 to 100), Windgrass per entry
test system: windgrass (Apera spica-venti); assay: Test D controlled growth environment herbicide test, pre- and postemergence; type: in vivo; conditions: Preemergence, 62 g ai/ha
READOUT NAME: Plant response rating (scale of 0 to 100), Windgrass

                                   compound  reported_value
0  CC(=O)Oc1c(C)nn(C)c(=O)c1-c1c(C)cc(C)c2ccccc12              80
1  C#CCOC(=O)Oc1c(C)nn(C)c(=O)c1-c1c(C)sc2ccc(C)cc12              80
2  CCOC(=O)Oc1c(C)nn(C)c(=O)c1-c1c(C)sc2ccc(C)cc12              80
3  CCC(=O)Oc1c(C)nn(C)c(=O)c1-c1c(C)sc2ccc(Cl)cc12              60

---

tested on: blackgrass (Alopecurus myosuroides); experiment: Test D controlled growth environment herbicide test, pre- and postemergence; format: in vivo; conditions: Postemergence, 31 g ai/ha; scale 0 to 100 (0 no effect, 100 complete control)
READOUT NAME: Blackgrass plant response rating

In [3]: df
Out[3]:
                                   compound                          system_name                      readout_name  reported_value
0    Cc1ccc(-c2c(O)c(Br)nn(C)c2=O)c2ccccc12  blackgrass (Alopecurus myosuroides)  Blackgrass plant response rating              10
1  CC(=O)Oc1c(C)nn(C)c(=O)c1-c1c(C)sc2c(C)cc(C)cc12  blackgrass (Alopecurus myosuroides)  Blackgrass plant response rating              75
2  COc1nn(C)c(=O)c(-c2c(C)ccc3ccccc23)c1OC(=O)OC(C)C  blackgrass (Alopecurus myosuroides)  Blackgrass plant response rating              25
3  CCC(=O)Oc1c(C)nn(C)c(=O)c1-c1c(C)sc2c(C)cc(C)cc12  blackgrass (Alopecurus myosuroides)  Blackgrass plant response rating              75
4  CCOC(=O)Oc1c(C)nn(C)c(=O)c1-c1c(C)sc2ccc(C)cc12  blackgrass (Alopecurus myosuroides)  Blackgrass plant response rating              45

---

# Lambsquarters plant response rating per entry
tested on: lambsquarters (Chenopodium album); test: Test C greenhouse herbicide test, pre- and postemergence; assay type: in vivo; details: Preemergence, 250 g ai/ha; scale 0 to 100 (0 no effect, 100 complete control)
READOUT NAME: Lambsquarters plant response rating

>>> print(df.to_string())
                                    compound                         readout_name  reported_value
 0  CCC(=O)Oc1c(C)nn(C)c(=O)c1-c1c(C)sc2ccc(C)cc12  Lambsquarters plant response rating              90
 1  CCOC(=O)Oc1c(C)nn(C)c(=O)c1-c1c(C)sc2c(C)cc(C)cc12  Lambsquarters plant response rating             100
 2  COC(=O)Oc1c(Br)nn(C)c(=O)c1-c1c(C)ccc2ccccc12  Lambsquarters plant response rating              95
 3  CC(=O)Oc1c(C)nn(C)c(=O)c1-c1c(C)cc(C)c2ccccc12  Lambsquarters plant response rating              98
 4  COc1nn(C)c(=O)c(-c2c(C)ccc3ccccc23)c1OC(=O)OC(C)C  Lambsquarters plant response rating              80
 5  CCOC(=O)Oc1c(C)nn(C)c(=O)c1-c1c(CC)ccc2ccccc12  Lambsquarters plant response rating              90
 6  CCOC(=O)Oc1c(C)nn(C)c(=O)c1-c1c(C)sc2ccc(C)cc12  Lambsquarters plant response rating              98
 7  CCC(=O)Oc1c(C)nn(C)c(=O)c1-c1c(C)sc2c(C)cc(C)cc12  Lambsquarters plant response rating              90
 8  CSCC(=O)Oc1c(C)nn(C)c(=O)c1-c1cccc2ccccc12  Lambsquarters plant response rating             100
 9  Cc1cc(C)c2ccccc2c1-c1c(OS(C)(=O)=O)c(C)nn(C)c1=O  Lambsquarters plant response rating              95
10  CCC(=O)Oc1c(C)nn(C)c(=O)c1-c1ccc(Br)c2ccccc12  Lambsquarters plant response rating              95
11  Cc1cc(C)c2sc(C)c(-c3c(OC(=O)OCCCl)c(C)nn(C)c3=O)c2c1  Lambsquarters plant response rating             100
12  CCC(=O)Oc1c(C)nn(C)c(=O)c1-c1c(C)sc2ccc(Cl)cc12  Lambsquarters plant response rating             100
